Test system: MDA-MB-231
assay-name: Antiproliferative activity against human MDA-MB-231 cells incubated for 48 hrs by MTT assay
Assay type: functional, cell-based
reported-conditions: MDA-MB-231, 48 h
recorded-endpoint: IC50

| sample-smiles | recorded-endpoint | endpoint-result |
| --- | --- | --- |
| CC(C)(C)OC(=O)N1[C@@H](/C=C/c2ccc([N+](=O)[O-])cc2)COC1(C)C | IC50 | 32 µM |
| COC(=O)c1ccc(CC[C@H]2COC(C)(C)N2C(=O)OC(C)(C)C)cc1 | IC50 | > 80 µM |
| CC(C)(C)OC(=O)N1[C@@H](/C=C\c2ccc([N+](=O)[O-])cc2)COC1(C)C | IC50 | 32 µM |
| CC(C)(C)OC(=O)N1[C@@H](C(=O)Nc2ccc([N+](=O)[O-])cc2)COC1(C)C | IC50 | > 80 µM |
| CC(C)(C)OC(=O)N1[C@@H](CSc2ccc([N+](=O)[O-])cc2)COC1(C)C | IC50 | > 80 µM |

###

Tested on: HL-60
assay-name: Antiproliferative activity against human HL60 cells incubated for 48 hrs by MTT assay
Assay type: functional, cell-based
reported-conditions: HL-60, 48 h

| sample-smiles | unit-abbrev | censor-symbol | IC50 |
| --- | --- | --- | --- |
| COC(=O)c1ccc(CC[C@H]2COC(C)(C)N2C(=O)OC(C)(C)C)cc1 | µM | = | 20 |
| CC(C)(C)OC(=O)N1[C@@H](/C=C\c2ccc([N+](=O)[O-])cc2)COC1(C)C | µM | = | 18 |
| CC(C)(C)OC(=O)N1[C@@H](/C=C/c2ccc([N+](=O)[O-])cc2)COC1(C)C | µM | = | 23 |
| CC(C)(C)OC(=O)N1[C@@H](CSc2ccc([N+](=O)[O-])cc2)COC1(C)C | µM | > | 50 |
| CC(C)(C)OC(=O)N1[C@@H](C(=O)Nc2ccc([N+](=O)[O-])cc2)COC1(C)C | µM | > | 50 |

meta.source: ChEMBL document CHEMBL3627602
